Biological target: recombinant human NF-kappaB-inducing kinase (NIK/MAP3K14) (Homo sapiens (Human))
Sequence (Q99558 whole entry): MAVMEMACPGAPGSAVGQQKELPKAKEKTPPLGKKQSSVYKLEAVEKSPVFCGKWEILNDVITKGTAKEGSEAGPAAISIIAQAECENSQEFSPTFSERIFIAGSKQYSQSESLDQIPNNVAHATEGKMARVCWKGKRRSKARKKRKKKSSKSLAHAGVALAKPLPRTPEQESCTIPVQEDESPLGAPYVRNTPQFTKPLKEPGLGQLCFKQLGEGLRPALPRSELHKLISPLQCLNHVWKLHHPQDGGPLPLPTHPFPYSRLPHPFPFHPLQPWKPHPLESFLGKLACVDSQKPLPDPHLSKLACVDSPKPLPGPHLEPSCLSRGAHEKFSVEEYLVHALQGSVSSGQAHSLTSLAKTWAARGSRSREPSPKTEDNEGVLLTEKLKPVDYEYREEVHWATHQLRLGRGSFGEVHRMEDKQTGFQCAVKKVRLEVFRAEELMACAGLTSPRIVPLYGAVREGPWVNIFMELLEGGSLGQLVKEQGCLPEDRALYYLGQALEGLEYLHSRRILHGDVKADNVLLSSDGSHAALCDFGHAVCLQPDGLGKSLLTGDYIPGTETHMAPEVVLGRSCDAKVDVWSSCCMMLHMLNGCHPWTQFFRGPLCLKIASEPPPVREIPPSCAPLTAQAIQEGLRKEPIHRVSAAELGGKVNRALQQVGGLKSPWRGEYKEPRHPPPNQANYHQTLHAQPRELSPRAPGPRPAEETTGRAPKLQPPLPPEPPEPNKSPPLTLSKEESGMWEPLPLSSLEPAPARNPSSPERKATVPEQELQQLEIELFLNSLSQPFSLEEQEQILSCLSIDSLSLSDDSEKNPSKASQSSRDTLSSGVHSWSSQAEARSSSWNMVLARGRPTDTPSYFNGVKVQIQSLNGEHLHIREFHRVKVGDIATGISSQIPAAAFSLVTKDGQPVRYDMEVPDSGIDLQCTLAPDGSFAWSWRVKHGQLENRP
Experiment: Inhibition of auto-phosphorylation of recombinant human NIK/MAP3K14 activity (AlphaScreen)
Format: biochemical
Details: averaged values over all measurements on all batches
Value Type: IC50 (nM)

# Compound, System Tested, Result Units, IC50
measured = [
    ("Cc1cc(Nc2nccc(-c3cc(C#N)c4c(c3)[C@@](C)(CO)CN4)n2)n(C[C@@H]2CN(C)CCO2)n1", "recombinant human NF-kappaB-inducing kinase (NIK/MAP3K14) (Homo sapiens (Human))", "nM", 13),
    ("COCCCn1ccc(Nc2nccc(-c3cc(C#N)c4c(c3)C(C)(CO)CN4)n2)n1 (stereo not shown)", "recombinant human NF-kappaB-inducing kinase (NIK/MAP3K14) (Homo sapiens (Human))", "nM", 4.9),
]

1. Cc1c(Nc2nccc(-c3cc(C#N)c4c(c3)C(C)(CO)CN4)n2)cnn1C (stereo not shown)
2. CN1CCN(Cc2nn(C)cc2Nc2nccc(-c3cc(C#N)c4c(c3)[C@@](C)(CO)CN4)n2)CC1
Determine, for 1 and 2 , which has the greater value of IC50. Identify your pick by its label.
2
(2: 13 nM, 1: 2.6 nM)

I. COCCN1CCC(Cn2nc(Cl)cc2Nc2nccc(-c3cc(C#N)c4c(c3)[C@@](C)(CO)CN4)n2)CC1
II. Cn1cc(Nc2nccc(-c3cc(C#N)c4c(c3)[C@@](C)(CO)CN4)n2)c(OCCN2CCOCC2)n1
III. COCCn1nc(C)cc1Nc1nccc(-c2cc(C#N)c3c(c2)[C@](C)(CO)CN3)n1
Hey, quick one: sort these by IC50, largest value first please. List the labels, following the order given in the request.
III, I, II
(III: 28 nM, I: 8.3 nM, II: 4 nM)

The reported numbers originate from patent US11136311B2.
